Data origin: PubChem BioAssay

- Tested on: XIP peptide (Xip251-270)
- assay: small-molecule binders of XIP peptide, primary screen, biochemical, small-molecule microarray, fluorescence 635/667 nm, 0.5 µg/mL protein (AID 1183)
- experimental conditions: small-molecule microarray binding, fluorescence 635 nm; higher = more signal
experimental endpoint: composite z-score

compound: C=C(COC)C(=O)CC[C@@H](OC(=O)c1cccnc1)c1ccccc1OCCO
measured target: XIP peptide (Xip251-270)
composite z-score: -0.576

Query: Give the measured composite z-score of CCCCCCCCCCC(O)C1C=CC2C(=O)N(c3ccccc3)C(=O)C2N1Nc1ccccc1F (stereo unspecified) .
Result: 0.538

Query: Please give the measured composite z-score for this compound: CCOC(=O)C1=C[C@@H](C(C)(C)C)N(S(=O)(=O)c2ccc(C)cc2)[C@H]1c1ccc(C)cc1
Result: 0.325

Query: What value of composite z-score has been recorded for this entry: CO[C@H]1O[C@H](CO)[C@@H](OC(=O)Nc2cccc(F)c2)[C@H](OC(=O)Nc2ccccc2-c2ccccc2)[C@H]1OC(=O)Nc1ccccc1-c1ccccc1
Result: 0.857

Query: Look up composite z-score for this compound: O=C1C[C@@](C(=O)NCC(F)(F)F)(c2ccc([N+](=O)[O-])cc2)[C@@H](c2ccc(CO)cc2)N1CC12CC3CC(CC(C3)C1)C2
Result: 0.709

Query: Returns the measured composite z-score for the input compound. Input: CC1(C)C(=O)C(c2ccccc2)=C2CN3C(=O)N(CCc4ccccc4)C(=O)C3(Cc3ccc(C(F)(F)F)cc3)C=C21 (stereo unspecified)
Result: 0.279
